Target: T1, human CD22 on CD22-positive Burkitt's lymphoma cells (Daudi, Raji, Ramos) (human, UniProt P20273 20-847)
T1 construct: whole, on cells; also called CD22+ cells; CD22 positive cells
T1 sequence (looked up): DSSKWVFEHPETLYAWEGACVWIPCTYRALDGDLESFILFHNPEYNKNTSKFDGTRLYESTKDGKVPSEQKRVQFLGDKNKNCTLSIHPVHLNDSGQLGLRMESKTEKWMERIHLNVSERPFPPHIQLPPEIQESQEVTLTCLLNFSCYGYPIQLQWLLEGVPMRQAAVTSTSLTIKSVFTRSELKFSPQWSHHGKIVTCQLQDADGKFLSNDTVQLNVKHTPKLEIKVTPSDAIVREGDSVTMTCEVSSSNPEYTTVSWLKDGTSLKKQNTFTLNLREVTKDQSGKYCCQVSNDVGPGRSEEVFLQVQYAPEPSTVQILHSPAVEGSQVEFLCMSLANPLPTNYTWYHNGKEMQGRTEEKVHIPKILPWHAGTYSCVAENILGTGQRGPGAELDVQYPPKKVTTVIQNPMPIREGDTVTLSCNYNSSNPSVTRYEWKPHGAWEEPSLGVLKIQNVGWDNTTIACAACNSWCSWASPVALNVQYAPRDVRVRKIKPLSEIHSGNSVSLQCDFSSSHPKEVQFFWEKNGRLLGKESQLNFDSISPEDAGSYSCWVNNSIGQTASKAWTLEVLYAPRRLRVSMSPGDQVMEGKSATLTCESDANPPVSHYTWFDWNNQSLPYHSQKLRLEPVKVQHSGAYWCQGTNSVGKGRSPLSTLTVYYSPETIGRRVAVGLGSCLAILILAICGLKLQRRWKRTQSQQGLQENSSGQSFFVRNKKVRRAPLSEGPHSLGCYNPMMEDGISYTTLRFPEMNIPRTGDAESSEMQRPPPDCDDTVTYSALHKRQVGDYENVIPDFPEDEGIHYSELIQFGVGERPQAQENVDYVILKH
Assay: cell binding, Daudi cells
parameter_measured: binding result

INSERT INTO measurements (binder, result) VALUES
  ('anti-CD22 heavy chain-only antibody with the VH of SEQ ID NO: 49 (antibody, V domains shown, Heavy chain-only antibody (UniAb), human IgG) VH: QLQLQESGPGLVKPSETLSLTCTVSGDSISSGDYYWGWIRQPPGKGLEWIGNIYYSGATYYNPSLKNRVTISVDTSKNQFSLKLSSVTAADTAVYYCTREDSSNWRSRGQGTLVTVSS', 'binds'),
  ('anti-CD22 heavy chain-only antibody with the VH of SEQ ID NO: 29 (antibody, V domains shown, Heavy chain-only antibody (UniAb), human IgG) VH: QLQLQESGPGLVKPSETLSLTCTVSGDSISSGDYYWGWIRQPPGKGLEWIGHIYYSGATYYNPSLKNRVTISVDTSRNQFSLKLSSVTAADTAVYYCTRDDSSNWRSRGQGTLVTVSS', 'binds'),
  ('anti-CD22 heavy chain-only antibody with the VH of SEQ ID NO: 27 (antibody, V domains shown, Heavy chain-only antibody (UniAb), human IgG) VH: QLQLQESGPGLVKPSETLSLTCTVSGDSISSGDYYWGWIRQPPGKGLEWIGHIYYSGVTYYNPSLKNRVTISVDTSRNQFSLNLSSVTAADTAVYYCTREDSSSWRSRGQGTLVTVSS', 'binds'),
  ('anti-CD22 heavy chain-only antibody with the VH of SEQ ID NO: 24 (antibody, V domains shown, Heavy chain-only antibody (UniAb), human IgG) VH: QLQLQESGPGLVKPSETLSLTCTVSGDSISSGDYYWGWIRQPPGKGLEWIGHIYYSGVTYYNPSLKSRVTISVDTSRNQFSLKLSSVTAADTAVYYCTREDSSNWRSRGQGTLVTVSS', 'binds');

Reference for the values: patent US11873336
